Data provenance is paper PMC8406319.

Below, each entry is listed with its recorded Kd.
# Tgt: TlpAD165A (Helicobacter pylori, UniProt O24925, D165A)
# Sequence (O24925 28-299 D165A): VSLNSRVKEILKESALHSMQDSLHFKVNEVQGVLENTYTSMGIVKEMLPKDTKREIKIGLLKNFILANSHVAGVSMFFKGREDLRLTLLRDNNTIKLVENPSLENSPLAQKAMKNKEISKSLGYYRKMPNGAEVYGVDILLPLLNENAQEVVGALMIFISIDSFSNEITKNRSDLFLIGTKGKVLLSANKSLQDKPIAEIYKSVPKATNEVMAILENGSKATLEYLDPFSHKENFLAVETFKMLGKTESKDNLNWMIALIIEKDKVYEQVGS
# Assay Method Text: biochemical
Structures can show the parent of a compound that is named as a salt.
Could you write the number and then its unit?

// known answers, use as guide
In [3]: df
Out[3]:
                                   molecule                                       tgt  value_observed
0  O=C(O)/C=C/C(=O)O [Fumarate, sodium fumarate]  TlpAD165A (Helicobacter pylori, UniProt O24925, D165A)          100 µM
1  N[C@@H](CS)C(=O)O [Cysteine, L-cysteine hydrochloride monohydrate]  TlpAD165A (Helicobacter pylori, UniProt O24925, D165A)         41.9 µM

Problem: Fill in reported Kd for this entry: Cc1ncc(C[n+]2csc(CCO)c2C)c(N)n1 [Thiamine, thiamine hydrochloride]
Result: 43.9 µM

Problem: Fill in reported Kd for this entry: N=C(N)NCCC[C@H](N)C(=O)O [Arginine, L-arginine monohydrochloride]
Result: 12.4 µM

Problem: Fill in reported Kd for this entry: O=C(O)C[C@H](O)C(=O)O
Result: 11.9 µM

Problem: Fill in reported Kd for this entry: N[C@H]1C(O)O[C@H](CO)[C@@H](O)[C@@H]1O (stereo partly drawn) [Glucosamine, D(+)-glucosamine hydrochloride]
Result: 96 µM

---

# Tgt: TlpAD254A (Helicobacter pylori, UniProt O24925, D254A)
# Sequence (O24925 28-299 D254A): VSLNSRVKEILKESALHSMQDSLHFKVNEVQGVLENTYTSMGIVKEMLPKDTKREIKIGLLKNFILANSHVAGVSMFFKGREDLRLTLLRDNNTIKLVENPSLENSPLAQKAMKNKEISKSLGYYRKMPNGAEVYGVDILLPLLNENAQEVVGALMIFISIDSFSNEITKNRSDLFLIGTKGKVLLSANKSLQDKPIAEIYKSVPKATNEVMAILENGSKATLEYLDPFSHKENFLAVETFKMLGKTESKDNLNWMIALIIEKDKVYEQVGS
# Assay Method Text: biochemical
Where a name gives a salt, the structure may show the parent alone.
Classify: t when Kd is strictly less than 10 µM; f when Kd is not.

Take a look at these entries with their results.
>>> print(df.to_string())
                                   molecule  cat
0  Cc1ncc(C[n+]2csc(CCO)c2C)c(N)n1 [Thiamine, thiamine hydrochloride]    f
1  N=C(N)NCCC[C@H](N)C(=O)O [Arginine, L-arginine monohydrochloride]    t

Problem: Given O=C(O)C[C@H](O)C(=O)O , is recorded Kd strictly lower than 10 µM?
Result: f

Problem: Given N[C@@H](CS)C(=O)O [Cysteine, L-cysteine hydrochloride monohydrate] , is recorded Kd strictly lower than 10 µM?
Result: t

Problem: Given O=C(O)/C=C/C(=O)O [Fumarate, sodium fumarate] , is recorded Kd strictly lower than 10 µM?
Result: f
